Values compiled from the NIST ThermoML archive (doi:10.1021/acs.jced.5b00936).

# applied-conditions: 303.15 K; 100 kPa; Liquid; Vibrating tube method
value-kind: mass density (kg/m3)

C[N+](C)(C)CCO.O=S(=O)([O-])CCN(CCO)CCO; 1241.8
CCCC[P+](CCCC)(CCCC)CCCC.O=S(=O)([O-])CCN(CCO)CCO; 1058.1
CCCC[P+](CCCC)(CCCC)CCCC.O=S(=O)([O-])CC(O)CNC1CCCCC1; 1028.2
CCCC[P+](CCCC)(CCCC)CCCC.O=S(=O)([O-])CC(O)CN1CCOCC1 [tetrabutylphosphonium 2-hydroxy-3-morpholinopropanesulfonate]; 1053.7

###

# test-summary: refractive index (Na D-line) (dimensionless)
# applied-conditions: 293.15 K; 100 kPa; Liquid; Standard Abbe refractometry
value-kind: refractive index

CCCC[P+](CCCC)(CCCC)CCCC.O=S(=O)([O-])CC(O)CNC1CCCCC1; 1.49497
CCCC[P+](CCCC)(CCCC)CCCC.O=S(=O)([O-])CCN(CCO)CCO; 1.4964
CCCC[N+](CCCC)(CCCC)CCCC.O=S(=O)([O-])CCN(CCO)CCO; 1.48966
CCCC[P+](CCCC)(CCCC)CCCC.O=S(=O)([O-])CC(O)CN1CCOCC1 [tetrabutylphosphonium 2-hydroxy-3-morpholinopropanesulfonate]; 1.49447
